# Assay target: MARK3A (Homo sapiens, UniProt P27448)
# Construct: purchased in-house DSF kinase panel (SGC-style construct names; the trailing letter is the construct ID)
# Sequence (P27448 56-307): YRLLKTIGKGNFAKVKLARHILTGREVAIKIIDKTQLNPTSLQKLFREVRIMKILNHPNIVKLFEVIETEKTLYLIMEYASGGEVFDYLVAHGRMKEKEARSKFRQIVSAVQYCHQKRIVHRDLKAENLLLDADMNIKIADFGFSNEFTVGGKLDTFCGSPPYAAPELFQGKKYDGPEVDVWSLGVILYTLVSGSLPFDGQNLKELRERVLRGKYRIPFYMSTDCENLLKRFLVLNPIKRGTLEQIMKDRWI
# Test method notes: DSF Tm panel
# Assay type: binding
# Test context: 10 μM compound
Outcome measure: ΔTm at 10 µM (°C)

Consider the following illustrative entries.
Compound: O=C(NCc1ccccc1)Nc1ccc2cc1OCCOCCNc1ccn3ncc-2c3n1 [compound 16]
Reported value: 0.7

Compound: Cc1ccc(F)cc1CNC(=O)Nc1ccc2cc1OCCOCCNc1ccn3ncc-2c3n1 [compound 26]
Reported value: 0.2

Compound: COc1cc(CNC(=O)Nc2ccc3cc2OCCOCCNc2ccn4ncc-3c4n2)ccc1F [compound 33]
Reported value: 0.3

Compound: COc1ccc(CNC(=O)Nc2ccc3cc2OCCOCCNc2ccn4ncc-3c4n2)cc1F [compound 32]
Reported value: 0.5

Compound: O=C(NCc1cccc(Cl)c1)Nc1ccc2cc1OCCOCCNc1ccn3ncc-2c3n1 [compound 18]
Reported value: 0.7

Compound: CN1CCN(C(=O)Nc2ccc3cc2OCCOCCNc2ccn4ncc-3c4n2)CC1 [compound 35]
Reported value: 0.5

Compound: COc1ccc(CNC(=O)Nc2ccc3cc2OCCOCCNc2ccn4ncc-3c4n2)cc1 [compound 31]
Reported value: 0.2

Compound: COc1ccccc1CNC(=O)Nc1ccc2cc1OCCOCCNc1ccn3ncc-2c3n1 [compound 29]
Reported value: -0.1

Compound: Cc1cc(Br)ccc1CNC(=O)Nc1ccc2cc1OCCOCCNc1ccn3ncc-2c3n1 [compound 24]
Reported value: 0.8

Compound: O=C(NCc1ccc(C(F)(F)F)cc1)Nc1ccc2cc1OCCOCCNc1ccn3ncc-2c3n1 [compound 28]
Reported value: 1.4

I. O=C(NCc1ccc(Cl)cc1F)Nc1ccc2cc1OCCOCCNc1ccn3ncc-2c3n1 [compound 21]
II. O=C(NCc1ccccc1Cl)Nc1ccc2cc1OCCOCCNc1ccn3ncc-2c3n1 [compound 17]
III. Cc1cc(Cl)ccc1CNC(=O)Nc1ccc2cc1OCCOCCNc1ccn3ncc-2c3n1 [compound 23]
IV. COc1cccc(CNC(=O)Nc2ccc3cc2OCCOCCNc2ccn4ncc-3c4n2)c1 [compound 30]
V. C[C@H](NC(=O)Nc1ccc2cc1OCCOCCNc1ccn3ncc-2c3n1)c1ccccc1 [compound 34]
Exam item: list the entries in increasing order of ΔTm at 10 µM. Return value: ordered labels per request.
IV, V, II, I, III
(IV: -0.3 °C, V: 0 °C, II: 0.8 °C, I: 1.5 °C, III: 2.4 °C)

a. O=C(NCc1ccc(Cl)cc1Cl)Nc1ccc2cc1OCCOCCNc1ccn3ncc-2c3n1 [compound 20]
b. O=C(NCc1ccc(Cl)cc1)Nc1ccc2cc1OCCOCCNc1ccn3ncc-2c3n1 [compound 19]
Select one: a or b . Criterion: greater recorded ΔTm at 10 µM. Your answer should be the label of the entry you select.
a
(a: 1.7 °C, b: 0.2 °C)

These entries and their values trace back to paper PMC12621043.
